# Experimental System: Vascular endothelial growth factor receptor 2 (Homo sapiens) (UniProt P35968)
# Sequence (P35968 whole entry): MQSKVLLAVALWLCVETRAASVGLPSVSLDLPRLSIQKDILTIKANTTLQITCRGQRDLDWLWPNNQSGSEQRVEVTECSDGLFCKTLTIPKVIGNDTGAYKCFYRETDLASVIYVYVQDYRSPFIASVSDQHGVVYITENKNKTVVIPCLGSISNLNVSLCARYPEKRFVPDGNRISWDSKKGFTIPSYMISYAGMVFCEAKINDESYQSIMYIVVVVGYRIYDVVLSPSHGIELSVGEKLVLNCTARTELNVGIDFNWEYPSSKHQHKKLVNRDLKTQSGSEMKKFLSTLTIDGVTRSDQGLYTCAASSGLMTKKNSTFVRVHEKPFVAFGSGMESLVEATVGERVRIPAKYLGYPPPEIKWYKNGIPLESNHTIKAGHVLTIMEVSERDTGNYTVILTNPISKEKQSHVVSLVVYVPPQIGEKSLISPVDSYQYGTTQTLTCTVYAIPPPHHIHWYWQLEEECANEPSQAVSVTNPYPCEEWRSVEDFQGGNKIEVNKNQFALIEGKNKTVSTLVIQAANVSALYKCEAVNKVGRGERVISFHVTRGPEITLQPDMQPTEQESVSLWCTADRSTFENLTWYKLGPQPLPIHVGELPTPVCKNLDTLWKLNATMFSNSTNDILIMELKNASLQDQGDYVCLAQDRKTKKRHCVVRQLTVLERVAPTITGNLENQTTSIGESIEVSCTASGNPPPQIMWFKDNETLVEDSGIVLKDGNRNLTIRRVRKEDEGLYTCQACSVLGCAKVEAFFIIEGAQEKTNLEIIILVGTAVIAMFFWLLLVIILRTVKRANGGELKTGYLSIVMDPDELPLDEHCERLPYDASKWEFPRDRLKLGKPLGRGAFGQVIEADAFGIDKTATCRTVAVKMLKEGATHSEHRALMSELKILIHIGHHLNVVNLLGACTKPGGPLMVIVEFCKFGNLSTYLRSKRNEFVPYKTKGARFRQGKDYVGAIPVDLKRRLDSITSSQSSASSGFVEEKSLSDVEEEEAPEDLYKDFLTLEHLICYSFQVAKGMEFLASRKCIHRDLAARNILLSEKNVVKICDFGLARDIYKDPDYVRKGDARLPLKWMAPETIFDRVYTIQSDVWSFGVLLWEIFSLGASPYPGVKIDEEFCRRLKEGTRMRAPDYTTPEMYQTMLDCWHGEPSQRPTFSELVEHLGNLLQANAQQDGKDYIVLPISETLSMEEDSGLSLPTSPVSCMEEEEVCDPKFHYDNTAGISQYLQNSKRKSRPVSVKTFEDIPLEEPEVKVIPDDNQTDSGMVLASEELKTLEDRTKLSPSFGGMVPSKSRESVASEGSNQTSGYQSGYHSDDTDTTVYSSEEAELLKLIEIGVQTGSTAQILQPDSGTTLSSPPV
# Assay Context: at 0.1 µM
# Description: GSK_PKIS: KDR mean inhibition at 0.1 uM [Nanosyn]
// not fulfilled strictly below 6% in inhibition; fulfilled otherwise

1) COc1ccc2cc(-c3c(-c4ccncc4)nc(-c4ccc([S+](C)[O-])cc4)n3C)ccc2c1 (stereo not given) = not fulfilled
2) COc1ccccc1Nc1ncc(-c2ccccc2)o1 = fulfilled
3) CS(=O)(=O)Nc1ccc(N/C=C2\C(=O)Nc3ccccc32)cc1 = fulfilled
4) COc1cc(C=NNc2ncnc3c2cnn3-c2ccccc2)ccc1O = fulfilled
5) CS(=O)(=O)CCNCc1ccc(-c2ccc3ncnc(Nc4ccc(OCc5cccc(F)c5)c(C(F)(F)F)c4)c3c2)o1 = not fulfilled
6) N#Cc1c(NC(=O)c2cccc3ccccc23)sc2c1CCCC2 = fulfilled
7) CCn1c(-c2nonc2N)nc2c(C#CC(C)(C)O)nc(CN3CCCC3)cc21 = not fulfilled
8) O=C1Nc2ccc(C(=O)c3ccco3)cc2C1=Cc1cc(Cl)c(O)c(Cl)c1 = fulfilled
9) CC1=C(C(=O)Nc2ccc3[nH]ncc3c2)C(c2ccc3ccccc3c2)CC(=O)N1 (stereo not given) = not fulfilled
